- ASSAY TEXT: yeast display, Sf9 membrane polyspecificity reagent, FACS + sequencing; frameworks hold sequencing errors
REPORTED METRIC: polyreactivity (PSR sort gate)

Some sequences with known polyreactivity (PSR sort gate) results, for comparison:
{"columns": ["CHAIN SEQUENCE", "polyreactivity (PSR sort gate)"],
 "data": [
  ["QVQLVESGGGLVQAGGSLRLTCAASGRIFSGYAMGWYRQEPGKEREFVASISTSGARTYYADSVKGRFTISRDNAKNTVYLQMNRLKPEDTAVYYCAKVIRWISYRGWYDYWGQGTQVTVSS", "high polyreactivity"],
  ["QVQLVESGGGLVQAGGSLRLSCAASGSTFHPNAMGWCRQAPRKQRELFAAITWSTSVTYYADSVKGRFTISRDNAKNTVFLQMISLKPEDSAVYYCNAGYMLDSFRYDHWGQCTQVTVSS", "low polyreactivity"],
  ["QFQLVESGGGLVQAGGSLRLSCAASGYIFLRNAMGCYRQAHGKERELVAAIRLTGGSTYYADSVKGRFTISRDNAKNTVYLQMNSLKPEDTAVYYCAKRSYTGYEYWGQGTQVTVSS", "low polyreactivity"],
  ["QVQLVESGGGLVQAGGSLRLSCAASGFTFPVNAMGWYRQAPGKERELVATINSGGSTNYADSVKGRFTISRDNAKNTVYLQMNSLKPEDTAVYYCAAAKRTADYASYWYVENDYWGQGTQVTVSS", "low polyreactivity"],
  ["QVQLVESGGGLVQAGGSLRLSSAASGRIFPHNAMGWYRQAPGKERELVAAISSNGGSTYYADSVKGRFTISRDNAKNTVYLQMNSLKPEDTAVYYCAKYRYFAGDGDYWGQGTQVTVSS", "low polyreactivity"]
]}

For each listed entry, give its polyreactivity (PSR sort gate).
1. QVQLVESGGGLVQAGGSLRLSCAASGRNFGIYAMGWYRQAPGKERELVARITGGGSTNYADSVKGRFTISRDNAKNTVYLQMNSLKPEDTAVYYCAATVRRIVGNITRYDYWGQGTQVTVSS
2. QVQLVESGGGLVQAGGSLRLSCAASGITFDYYAMGWYRQAPGIERELVAAIDDSGGSTYYADSVKGRFTISRDNAKNTVYLQMNSLKPEDTAVYYCAAEFFYYEYDYWGQGTQVTVSS
3. QVQLVESGGGLVQAGGSLRLSCAASGRIFKYYAMGWYRQAPGKERELVAAITRGGSTNYADSVKGRFTISRDNASNTVYLQMTSLKPEDTAVYYCAVVTVRNHRMDYWGQGTQVTVSS

["low polyreactivity", "high polyreactivity", "low polyreactivity"]

# map each sequence to its polyreactivity (PSR sort gate)
1. QVQLVESGGGLVQAGGSLRLSCAASGSTFRQYTMGWYRQAPGKERELVAAISRGCGNTYYADSVKGRFTISRDNAKNTVYLQMNSLKPEDTAVYYCAADRSYSGDSWGQGTQVTVSS
2. QVQLVESGGGLVQAGGSLRLSCAASGNTIFAYVMGWYRQAAGKEREFVAAISRRDGRTYYADSVKGRFTISRDNAKNTVYLQMNSLKPEDTAVYYCNAQRHFWHLYAPSSFDYWGQGTQVTVSS
3. QVQLVESGGGLVQAGGSLRLSCAASGSIFRANVLGWYRKAPGKERELVAAISRGGGTTYYADSVKGRFTISRDNAKNTVYLQMNSLKPEDTAVYYCAALGHYRSNNNVDMDYWGQGTQVTVSS

1: high polyreactivity; 2: low polyreactivity; 3: high polyreactivity

###

- ASSAY TEXT: yeast display, Sf9 membrane polyspecificity reagent, FACS + sequencing; frameworks hold sequencing errors
REPORTED METRIC: polyreactivity (PSR sort gate)

{"columns": ["CHAIN SEQUENCE", "REPORTED METRIC", "RECORDED RESULT"],
 "data": [
  ["QVQLVESGGVLVQAGGSLLLSCAASGFTFGCYGMGWYRQARGKERELGAAITKSGGRTYYADSVKGRFTISRDNAKNTVYLQMNSLLREDTAVYYCAASSQGDGGYWGQGSQVTVSS", "polyreactivity (PSR sort gate)", "high polyreactivity"],
  ["QVQLVYSGGGLVQAGGSLRLSCAASGRTSWIKAMGWYRTAPGKERQLVAAIRYSGRTYYADSVKGRFTISRDNAKNTVYLQMNSLKPEDYGVYYCAAVVGGYETGRYYYWGQGTQVTVSS", "polyreactivity (PSR sort gate)", "high polyreactivity"],
  ["QVQLVESGGGLVQAGGSLRLSCAASGRTFVYYAMGWYRPAPGKERELVAAISSRGGSTYYADSVKGRFTISRDNAKNTVYLQMNSLKPEDTAVYYCAAVKGPERPTSPYDYWGQGTQVTVSS", "polyreactivity (PSR sort gate)", "high polyreactivity"],
  ["QVQLVESGGGLVQAGGSLRLSSAASGLTIYYYAMGWYRQAPGKERELVAAITWRGGSTYYADSVKGRFTISRDNAKYPDYLQMNCLIPAVTAVYYSAADPGPYGYYYWGQGTQVTVSS", "polyreactivity (PSR sort gate)", "low polyreactivity"],
  ["QVQLVESGGGLVQAGGSLRLSCAASGRTFWLNAMGWYRQAPGKERELVATISRGGSTNYADSVKGRFTISRDNANNTVYLQMNSLKPEDTAVYYCAARRYYWLRGYNYWGQGTQVTVSS", "polyreactivity (PSR sort gate)", "high polyreactivity"]
]}

For each listed entry, give its polyreactivity (PSR sort gate).
1. QVQLVESGGGLVQAGGSLRLTCPASGGIFYDYSMVWYRQAPGKERQLVAAITRSGDSTYYADSVKGRFTISRDNAKNTVYLQMNSLKPEDTAVYYCAADIWSSDYEEFYYWVQGTQVTVSS
2. QVQLVESGGGLVQAGGTLRLSCAASGSTFFVYAMAWYRQEPGKERELVAAISSRGSTYYADSVKGRFTISRDNAKNTVFLQMISLKPEDSAVYFCAAEYTVSYLRMDYWGQGTQVTVSS
3. QVQLVESGGGLVQAGGSLRLSCAASGSIFITYAMGWYRQAPGKERELVAAIRDSGDRTYYADSVKGRFTISRDNEKNTVYLQMNSLKPEDTAVYYCNARWQEPLKYDYWGQGTQVTVSS

1. low polyreactivity
2. low polyreactivity
3. low polyreactivity

# batch: return polyreactivity (PSR sort gate) for each of the 3 sequences below
1. QVQRVESGGGLVQAGGSLRLSCAASGKIFGQYAMGRYRQAPGKEREFVAAITWSGGSTYYADSVKGRFTISRDNAKNTVYLQMNSLKPEDTAVYYCAADYGKTHRYDYDYWGQGTQVTVSS
2. QVQLVESGGGLVQAGGSIRLSSAASGLIFLGDPMGWYRQAPGKERELVASIRTGRSTSYADSVKGRFTFSRDNAKYTVYLQMNSLKPEDTAVYYCAADRGRPNLPGDYWGQGSQVTVSS
3. QVQLVESGGGLVQAGGSLRFSSAASGSIFQSYPMGLYRPAPGKERELVAAITRSGGRTYYADSVKGRFTISRDNAKNTVYLQMNSLKPEDTAVYYCAAFGWGYGYWGQGTQVTVSS

["low polyreactivity", "low polyreactivity", "high polyreactivity"]

###

- ASSAY TEXT: yeast display, Sf9 membrane polyspecificity reagent, FACS + sequencing; frameworks hold sequencing errors
REPORTED METRIC: polyreactivity (PSR sort gate)

// known answers, use as guide
{"columns": ["CHAIN SEQUENCE", "RECORDED RESULT"],
 "data": [
  ["QVQLVESGGGLVQAGGSLRLSCAASGRIFPQYAMGWYRQAPGKERELVAAISVSGTRTYYADSVKGRFTISRDNAKNTVYLQMNSLKPEDTAVYYCNTLGKYDGFYYWGQGTQVTVSS", "high polyreactivity"],
  ["QVQLVESGGGLVQAGGSLRLSCAASGRTYPRYGMGWYRQAPGKERELVDTIRTGGRTNYADSVKGRFTISRDNAKNTVYLQMNSLKPEDTAVYYCATDSSKHPYSPTLLKFDYWGQGTQVTVSS", "low polyreactivity"],
  ["QVQLVESGGGLVQAGGSLRLSCAASGRIFGVYAMGWYRQAPGKERELVAAISTRGGSTYYADSVKGRFTISRDNAKNTVYLQMNSLKPEDTAVYYCAAKSNNIATMDYWGQGTQVTVSS", "low polyreactivity"],
  ["QVQLVESGGGLVQAGGSLRLSCAASGSIFRWYDMGWYRQAPGKERELVAVISKRGGSTYYADSVKGRFTISRDNAKNTVYLQMNSLKPEDTAVYYCAKRYERWQLARLDYWGQGTQVTVSS", "high polyreactivity"],
  ["QVQLVESGGGLVHAGGSLRLSCAASGRTFVLYVMGWYRQAPGKETEFVADINAGGGSTYYADSVKGRFTISRDNAKNTVYLQMNSLKPEDTAVYYCAATRVLGQLFRFGYWGQGTQVSVSS", "low polyreactivity"]
]}

Return reported polyreactivity (PSR sort gate) values for all items listed beneath this line.
1. QVQLVESGGGLVQAGGSLRLSCAASGSTFSAYVMGWYRQAPVKERELVAAISSIGGSTYYADSVKGRFTISRDNAKNTVYLQMNSLKPEDTAVYYCAAEPPGSTYEGGYWGQGTQVTVSS
2. QVQLVESVGGLVQAGGSLRLSCAASGYTFPDYAMGWYRQAPGKEREFVATISWSGTSTYYADSVKGRFTISRDNAKNTVYLQMNSLKPEDTAVDYCNASAYYPPSSSRYDYWGQGTQVTVSS
3. HVQLVESGGGIVQAGGSLRLSCAASGLIVINYAMGRYRQARGKERELVATIRYCGGSTNYADSVKGRFTISRDNAKNTVYLQMNSLKPEDNAVYYCNAGYYPTGYDYWGQGTQVTVSS
4. QVQLVESGGGLVQAGGSLRLSCAASGITFYVYAMGWYRQAPGKERELVAAISRRGGSTSYADSVKGRFTISRDNAKNTVYLQMNSLKPEDTAVYYCAKDTTYYQVYGYGYDYWGQGTQVTVSS
5. QVQLVESGGGLFQAGGRLRLSCAASGSTFGYNAMGWYREAPGKERELVAAISYSSGSTYYADSVKGRFTISRDNAKNTVYLQMNSLKPEDTAVYYCAVVSRASRRGGRYDYWGQGTQVTVSS
6. QVQLHESGGGLVQAGGSLRLSCAASGTISYAGPMGWYRQAPGKEREFVAGIGVGSNTNYADSVKGRYTIIRDNAKNTVYLQMNSLKPVDTAVYYCAVGGYAPLGRPYWGQGTQVTVSS

1. low polyreactivity
2. low polyreactivity
3. low polyreactivity
4. low polyreactivity
5. high polyreactivity
6. low polyreactivity

Values from the nanobody polyreactivity screen of Harvey et al. (2022)
